// reported pKi per item
target-desc: hMC1-R (Homo sapiens, UniProt Q01726)
Construct: expressed in transfected cells; host or cells: CHO-K1
Sequence (Q01726 whole entry): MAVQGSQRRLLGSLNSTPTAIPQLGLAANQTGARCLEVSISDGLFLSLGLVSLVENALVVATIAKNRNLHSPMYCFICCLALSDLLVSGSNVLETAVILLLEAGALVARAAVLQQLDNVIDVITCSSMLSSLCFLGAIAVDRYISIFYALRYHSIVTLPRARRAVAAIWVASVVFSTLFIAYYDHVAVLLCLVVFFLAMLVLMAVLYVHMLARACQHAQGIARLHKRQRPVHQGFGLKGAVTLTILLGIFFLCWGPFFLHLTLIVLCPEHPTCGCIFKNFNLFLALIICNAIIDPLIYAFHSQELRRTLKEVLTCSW
test-protocol: Radioligand binding assay, [125I]-NDP-α-MSH competition, CHO-K1 membranes
measurement-conditions: Table 5; read-out: Ki hMC1-R
Bridge positions count the residues as written; N and C are the ends. Square brackets hold non-standard residues; d marks the D form. Peptide text beside a SMILES is read from it. d2Nal = N[C@H](Cc1ccc2ccccc2c1)C(=O)O; Nle = CCCC[C@H](N)C(=O)O; Ahx = NCCCCCC(=O)O
The quantity pKi is defined as the negative base-10 logarithm of the molar concentration.

# input Please report the recorded pKi for CCCC[C@H](NC(C)=O)C(=O)N[C@H]1CSSC[C@@H](C(N)=O)NC(=O)CCCCCNC(=O)[C@H](Cc2c[nH]c3ccccc23)NC(=O)[C@H](CCCNC(=N)N)NC(=O)[C@@H](Cc2ccc3ccccc3c2)NC(=O)[C@H](Cc2c[nH]cn2)NC1=O (Ac-[Nle]CH[d2Nal]RW[Ahx]C-NH2; disulfide 2-8 (inferred)) .
# output 9.48

# input Please report the recorded pKi for `CCCC[C@H](NC(C)=O)C(=O)N[C@H]1CC(=O)NCCCC[C@@H](C(N)=O)NC(=O)CCNC(=O)[C@H](Cc2c[nH]c3ccccc23)NC(=O)[C@H](CCCNC(=N)N)NC(=O)[C@@H](Cc2ccc3ccccc3c2)NC(=O)[C@H](Cc2c[nH]cn2)NC1=O` .
# output 9.19

====

target-desc: hMC3-R (Homo sapiens)
Construct: expressed in transfected cells; host or cells: CHO-K1
Sequence (P41968 whole entry): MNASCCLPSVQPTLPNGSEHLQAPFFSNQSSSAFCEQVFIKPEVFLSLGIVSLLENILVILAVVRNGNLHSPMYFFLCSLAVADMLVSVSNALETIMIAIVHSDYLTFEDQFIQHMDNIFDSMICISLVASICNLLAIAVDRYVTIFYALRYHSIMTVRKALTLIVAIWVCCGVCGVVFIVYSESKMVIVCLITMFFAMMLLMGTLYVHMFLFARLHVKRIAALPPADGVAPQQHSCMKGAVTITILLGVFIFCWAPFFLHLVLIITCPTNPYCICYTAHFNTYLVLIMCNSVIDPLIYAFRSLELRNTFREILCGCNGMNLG
test-protocol: Radioligand binding assay, [125I]-NDP-α-MSH competition, CHO-K1 membranes
measurement-conditions: Table 5; read-out: Ki hMC3-R
Bridge positions count the residues as written; N and C are the ends. Square brackets hold non-standard residues; d marks the D form. Peptide text beside a SMILES is read from it. 1Nal = N[C@@H](Cc1cccc2ccccc12)C(=O)O; d2Nal = N[C@H](Cc1ccc2ccccc2c1)C(=O)O; Bta = N[C@@H](Cc1csc2ccccc12)C(=O)O; Nle = CCCC[C@H](N)C(=O)O
quantity-measured: Ki (nM)

CCCC[C@H](NC(C)=O)C(=O)N[C@H]1CSSC[C@@H](C(N)=O)NC(=O)[C@H](Cc2cccc3ccccc23)NC(=O)[C@H](CCCNC(=N)N)NC(=O)[C@@H](Cc2ccc3ccccc3c2)NC(=O)[C@H](Cc2c[nH]cn2)NC(=O)[C@@H](C)NC1=O (Ac-[Nle]C[dA]H[d2Nal]R[1Nal]C-NH2; disulfide 2-8) ... 63.9
CCCC[C@H](NC(C)=O)C(=O)N[C@H]1CSSC[C@@H](C(N)=O)NC(=O)[C@H](Cc2csc3ccccc23)NC(=O)[C@H](CCCNC(=N)N)NC(=O)[C@@H](Cc2ccc3ccccc3c2)NC(=O)[C@H](Cc2c[nH]cn2)NC(=O)[C@@H](C)NC1=O (Ac-[Nle]C[dA]H[d2Nal]R[Bta]C-NH2; disulfide 2-8) ... 12.7

A. CC(=O)N[C@@H](CCc1ccccc1)C(=O)N[C@H]1CC(=O)NCCCC[C@@H](C(N)=O)NC(=O)CCCNC(=O)[C@H](Cc2c[nH]c3ccccc23)NC(=O)[C@H](CCCNC(=N)N)NC(=O)[C@@H](Cc2ccc3ccccc3c2)NC(=O)[C@H](Cc2c[nH]cn2)NC1=O
B. CCCC[C@H](NC(C)=O)C(=O)N[C@H]1CSSC[C@@H](C(N)=O)NC(=O)CCCNC(=O)[C@H](Cc2c[nH]c3ccccc23)NC(=O)[C@H](CCCNC(=N)N)NC(=O)[C@@H](Cc2ccccc2)NC(=O)[C@H](Cc2cccnc2)NC1=O
# input Pick one, A or B : lowest reported Ki. Write the label of whichever entry you select.
# output A
(A: 2.45 nM, B: 151 nM)

Just for reference, patent US20120135923A1 is where these values come from.
